Record form. Attribute: Liver COMT (% of control) 1h. Fill in for each entry.
Tested on: Liver COMT
assayText: Ex vivo COMT activity in mouse liver homogenates after administration of test compound by gastric tube
Set-up: species or system NMRI mice
assaySetup: homogenates of mice liver, 1 h after administration by gastric tube; dose not given; means±S.E.M. of 4-8 experiments

Observe how each entry below is paired with its result.
>  <compound>
Cl.O=C(CCN1CCCCC1)c1cc(O)c(O)c([N+](=O)[O-])c1

>  <Liver COMT (% of control) 1h>
24.6±4.8 % of control

$$$$
>  <compound>
CC1CC(C)CN(CC(=O)c2cc(O)c(O)c([N+](=O)[O-])c2)C1.Cl (stereo not drawn)

>  <Liver COMT (% of control) 1h>
33.0±2.0 % of control

$$$$
>  <compound>
Cl.O=C(CCN1CCSCC1)c1cc(O)c(O)c([N+](=O)[O-])c1

>  <Liver COMT (% of control) 1h>
30.3±4.0 % of control

$$$$
>  <compound>
Cl.O=C(CCN1CCC(Cc2ccccc2)CC1)c1cc(O)c(O)c([N+](=O)[O-])c1

>  <Liver COMT (% of control) 1h>
16.5±1.5 % of control

$$$$
>  <compound>
CCN(CC)C(C)C(=O)c1cc(O)c(O)c([N+](=O)[O-])c1.Cl (stereo not drawn)

>  <Liver COMT (% of control) 1h>
38.4±2.8 % of control

$$$$

// switching to the query compound
Would you mind telling me what Liver COMT (% of control) 1h value was observed for Cl.Cl.O=C(CCN1CCN(c2cccc(C(F)(F)F)c2)CC1)c1cc(O)c(O)c([N+](=O)[O-])c1 ?
18.5±6.8 % of control
